Values compiled from the supplement of paper PMC8728848.

Biological target: Fuc(a1-2)[GalNAc(a1-3)]Gal(b1-4)[Fuc(a1-3)]GlcNAc
Assay: glycan array binding signal (z-score within array); higher = stronger binding
Details: glycan notation: IUPAC condensed, linker removed
The entries come from a sample that favours the strongest signals as a whole.
Measured endpoint: glycan array binding signal (z-score)

Cohesin-marm-DC-ASGPR-CRD (protein) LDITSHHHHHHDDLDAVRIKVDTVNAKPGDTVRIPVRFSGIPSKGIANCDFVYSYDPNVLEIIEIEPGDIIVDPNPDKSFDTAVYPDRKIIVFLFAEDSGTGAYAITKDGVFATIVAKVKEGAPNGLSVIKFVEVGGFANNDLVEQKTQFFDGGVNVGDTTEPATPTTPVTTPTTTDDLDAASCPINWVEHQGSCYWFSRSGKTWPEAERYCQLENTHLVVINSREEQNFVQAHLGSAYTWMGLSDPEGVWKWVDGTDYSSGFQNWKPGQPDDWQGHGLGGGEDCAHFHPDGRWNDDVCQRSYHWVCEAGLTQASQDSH :: 3.78
SIGNR8 (Mus musculus) (protein) MAGEPEFHQSKNHEEEVTSGEQGFAEHDPEGLICSSKSLQGHLTQVPWLLLLLISLGLFLLMLATLVQVSRIRAYSQGQTQDQQGSSSLDKVAVPREQTHSGLEQIQQIQQQLTQFNASLAGLCRPCPWDWELFQGSCYLFSRTLGSWETSASSCEDLGAHLVIVNSVSEQRFMKYWNVRKNQRSWIGLSDHIHEGSWQWVDGSALKFSFWKEGEPNNDGDEDCVELFMDDWNDNKCTEQNFWVCEQPSAPCPHH :: -0.386
LlpA1 (Pseudomonas fluorescens), Q4KHC3 (protein) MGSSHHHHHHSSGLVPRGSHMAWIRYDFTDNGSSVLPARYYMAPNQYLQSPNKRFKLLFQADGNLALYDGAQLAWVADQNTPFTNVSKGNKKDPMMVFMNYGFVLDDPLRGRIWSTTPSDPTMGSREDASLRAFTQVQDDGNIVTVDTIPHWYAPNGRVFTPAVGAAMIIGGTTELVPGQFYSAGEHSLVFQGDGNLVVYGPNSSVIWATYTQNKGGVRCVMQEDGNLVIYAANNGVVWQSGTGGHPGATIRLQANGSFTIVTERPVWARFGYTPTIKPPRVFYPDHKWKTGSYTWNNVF :: 0.114
